# assay_info: logP by HPLC on reversed-phase column (C 18), EEC Directive 79/B31 Annex V.A8, methods A and B
# Format: physicochemical
# measurement_conditions: reversed-phase HPLC column (C 18), LogP method B: HPLC reversed-phase C 18, 40° C., 0.1% aqueous formic acid / acetonitrile, linear gradient 10% to 90% acetonitrile
# Protocol: Calibration was carried out using unbranched alkan-2-ones (having 3 to 16 carbon atoms) with known logP values (determination of the logP values by the retention times using linear interpolation between two successive alkanones).
Kindly note that classification relies on chromatographic logP with these boundaries: 0 (below 3), 1 (3 to below 4), 2 (4 or more)

Query string: Textbook exercise: identify the category of the compound given here, COc1nn(C)cc1C(=O)N(C1CC1)S(=O)(=O)c1ccc(Oc2cccc(O)c2)cc1Br , according to its measured value.
Result string: 1

Query string: Textbook exercise: identify the category of the compound given here, CCOc1nn(C)cc1C(=O)N(C1CC1)S(=O)(=O)c1ccc(Oc2ccc(C)cc2)cc1Cl , according to its measured value.
Result string: 0

Query string: Textbook exercise: identify the category of the compound given here, Cc1nocc1C(=O)N(C1CC1)S(=O)(=O)c1ccc(O)c(O)c1O , according to its measured value.
Result string: 1

Query string: Textbook exercise: identify the category of the compound given here, O=C(c1cccnc1F)N(C1CC1)S(=O)(=O)c1cccc(O)c1O , according to its measured value.
Result string: 0

Query string: Textbook exercise: identify the category of the compound given here, CCOc1nn(C)cc1C(=O)N(C1CC1)S(=O)(=O)c1ccc(Oc2ccc(Br)cc2)c(O)c1 , according to its measured value.
Result string: 2

Query string: Textbook exercise: identify the category of the compound given here, O=C(c1cccnc1O)N(C1CC1)S(=O)(=O)c1ccc(Oc2ccc(Br)cc2)cc1 , according to its measured value.
Result string: 2

Query string: Textbook exercise: identify the category of the compound given here, CCOc1nn(C)cc1C(=O)N(C1CC1)S(=O)(=O)c1ccc(Oc2cccc(C(F)(F)F)c2F)c(O)c1 , according to its measured value.
Result string: 2

Query string: Textbook exercise: identify the category of the compound given here, COc1nn(C)cc1C(=O)N(C1CC1)S(=O)(=O)c1c(O)cc(Cl)cc1O , according to its measured value.
Result string: 0

Query string: Textbook exercise: identify the category of the compound given here, COc1nn(C)cc1C(=O)N(C1CC1)S(=O)(=O)c1ccc(Oc2ccccc2)cc1Br , according to its measured value.
Result string: 1

Query string: Textbook exercise: identify the category of the compound given here, CCOc1nn(C)cc1C(=O)N(C1CC1)S(=O)(=O)C1C=CC(Oc2ccc(Br)c(O)c2)=CC1O (stereo not shown) , according to its measured value.
Result string: 2

Query string: Textbook exercise: identify the category of the compound given here, Cn1ncc(I)c1C(=O)N(C1CC1)S(=O)(=O)c1ccc(O)c(O)c1O , according to its measured value.
Result string: 1

Query string: Textbook exercise: identify the category of the compound given here, COc1nn(C)cc1C(=O)N(C1CC1)S(=O)(=O)c1ccc(Oc2ccc(Cl)c(C(F)(F)F)c2)cc1Br , according to its measured value.
Result string: 2

Query string: Textbook exercise: identify the category of the compound given here, COc1nn(C)cc1C(=O)N(C1CC1)S(=O)(=O)c1ccc(Oc2ccc(C)nc2)cc1Br , according to its measured value.
Result string: 0

Query string: Textbook exercise: identify the category of the compound given here, CCOc1nn(C)cc1C(=O)N(C1CC1)S(=O)(=O)c1ccc(Oc2ccc(O)cc2O)c(O)c1 , according to its measured value.
Result string: 2

Query string: Textbook exercise: identify the category of the compound given here, COc1nn(C)cc1C(=O)N(C1CC1)S(=O)(=O)c1csc(O)c1O , according to its measured value.
Result string: 1
